run parameters: human, serum
Flag rule - fraction unbound less than 0.1 flags criterion met; the remaining entries get criterion not met.

COc1cc(-c2nn(CCN3CCC(N(C)C)CC3)c3ncnc(N)c23)ccc1CC(=O)OC(C)(C)C | criterion not met
COc1cc(-c2nn(CCN3CCC(N4CCCCC4)CC3)c3ncnc(N)c23)ccc1NC(=O)OC(C)(C)C | criterion not met
Cc1nc(Nc2ncc(C(=O)Nc3c(C)cccc3Cl)s2)cc(N2CCN(CCO)CC2)n1 [Dasatinib, reference compound] | criterion met
COc1cc(-c2nn(CCN3CCC(N(C)C)CC3)c3ncnc(N)c23)ccc1NCc1ccccc1 | criterion not met

Could you now consider this next compound?
Take the compound COc1cc(-c2nn(CCN3CCC(N4CCCC4)CC3)c3ncnc(N)c23)ccc1NC(=O)OC(C)(C)C and say whether its fraction unbound is less than 0.1. criterion not met
